These entries and their values trace back to patent US20160145267A1.

System: HeLa cell line
Assay: Proliferation assay (HeLa cell line)
Assay type: cell-based
Conditions: Homo sapiens, 96 h, read-out: Biological Assay 2: Proliferation assay (HeLa cell line) median IC50
pIC50: −log10 of the molar value.
EXPERIMENTAL ENDPOINT: pIC50

{"columns": ["STRUCTURE AS SMILES", "SYSTEM", "pIC50"],
 "data": [
  ["CCNC(=O)Nc1cc(Nc2ccncc2)nc(-c2nn(Cc3c(F)cc(OCC)cc3F)c(C3CC3)c2C)n1", "HeLa cell line", 5.77],
  ["CCOc1cc(F)c(Cn2nc(-c3nc4c(c(Nc5ccncn5)n3)OCC(=O)N4)c(C)c2C2CC2)c(F)c1", "HeLa cell line", 5.00],
  ["CCOc1cc(F)c(Cn2nc(-c3nc(N)cc(Nc4ccncn4)n3)c(C)c2C2CC2)c(F)c1", "HeLa cell line", 5.51],
  ["CCNC(=O)Nc1cc(Nc2ccncn2)nc(-c2nn(Cc3c(F)cc(OCC)cc3F)c(C3CC3)c2C)n1", "HeLa cell line", 5.31],
  ["CCNC(=O)Nc1c(N)nc(-c2nn(Cc3c(F)cc(OCC)cc3F)c(C3CC3)c2C)nc1Nc1ccncc1", "HeLa cell line", 5.28],
  ["CCOc1cc(F)c(Cn2nc(-c3nc(Nc4ccncc4)c(OCCOC)c(Nc4ccncc4)n3)c(C)c2C2CC2)c(F)c1", "HeLa cell line", 6.01]
]}

A. CCNC(=O)Nc1nc(-c2nn(Cc3c(F)cc(OCC)cc3F)c(C3CC3)c2C)nc(Nc2ccncc2)c1OC
B. CCOc1cc(F)c(Cn2nc(-c3nc(N)cc(Nc4ccnc(OC)c4)n3)c(C)c2C2CC2)c(F)c1
Which value of pIC50 is greater, the one for A or the one for B ? Your answer should be the label attached to the chosen record.
A
(A: 5.42, B: 5.12)

a. CCNC(=O)Nc1nc(-c2nn(Cc3c(F)cc(OCC)cc3F)c(C3CC3)c2C)nc(Nc2ccncn2)c1N1CCOCC1
b. CCOc1cc(F)c(Cn2nc(-c3nc(Nc4ccncc4)c(NC(=O)COC)c(Nc4ccncc4)n3)c(C)c2C2CC2)c(F)c1
# return whichever of a and b has the smaller pIC50 Your answer should be the label attached to the chosen record.
a

---

Target: catalytic domain of human Bub1 (amino acids 704-1085) (Homo sapiens)
Construct: catalytic domain of human Bub1 (amino acids 704-1085); His6 (N); made in house; host or cells: Hi5 insect cells
Experiment: Bub1 kinase assay (TR-FRET)
Format: biochemical
pIC50: −log10 of the molar value.
EXPERIMENTAL ENDPOINT: pIC50

Here are 8 compounds together with their reported answers.
{"columns": ["STRUCTURE AS SMILES", "DATA VALUE"],
 "data": [
  ["CCOc1cc(F)c(Cn2nc(-c3nc(N)c(NC(=O)COC)c(Nc4ccncn4)n3)c(C)c2C2CC2)c(F)c1", 7.89],
  ["CCOc1cc(F)c(Cn2nc(-c3nc(NC(=O)NC4CCCCC4)c(OC)c(Nc4ccncc4)n3)c(C)c2C2CC2)c(F)c1", 6.47],
  ["CCOc1cc(F)c(Cn2nc(-c3nc(Nc4ccncc4)c(N4CCOCC4)c(Nc4ccncc4)n3)c(C)c2C2CC2)c(F)c1", 6.66],
  ["CCOc1cc(F)c(Cn2nc(-c3nc(NC(=O)NC4CCCCC4)c(N4CCOCC4)c(Nc4ccncc4)n3)c(C)c2C2CC2)c(F)c1", 6.04],
  ["CCOc1cc(F)c(Cn2nc(-c3nc(Nc4ccnnc4)cc(Nc4ccnnc4)n3)c(C)c2C2CC2)c(F)c1", 6.00],
  ["C=CC(=O)Nc1cc(Nc2ccncc2)nc(-c2nn(Cc3c(F)cc(OCC)cc3F)c(C3CC3)c2C)n1", 7.23],
  ["CCOc1cc(F)c(Cn2nc(-c3nc(N)nc(Nc4ccncn4)n3)c(C)c2C2CC2)c(F)c1", 7.92],
  ["CCOc1cc(F)c(Cn2nc(-c3nc(N)nc(Nc4ccncc4)n3)c(C)c2C2CC2)c(F)c1", 8.15]
]}

P. CCOc1cc(F)c(Cn2nc(-c3nc(Nc4ccncn4)c(OCCOC)c(Nc4ccncn4)n3)c(C)c2C2CC2)c(F)c1
Q. CCOc1cc(F)c(Cn2nc(-c3nc(N)c(OCCOC)c(Nc4ccncn4)n3)c(C)c2C2CC2)c(F)c1
R. CCNC(=O)Nc1nc(-c2nn(Cc3c(F)cc(OCC)cc3F)c(C3CC3)c2C)nc(Nc2ccncc2)c1N1CCOCC1
S. CCOc1cc(F)c(Cn2nc(-c3nc(Nc4ccncc4)nc(Nc4ccncc4)n3)c(C)c2C2CC2)c(F)c1
Exam item: list the entries in increasing order of pIC50. Answer by listing the labels in the order asked for.
R, P, S, Q
(R: 6.54, P: 6.92, S: 7.17, Q: 8.04)

P. CCOc1cc(F)c(Cn2nc(-c3nc(Nc4ccncn4)c(N4CCOCC4)c(Nc4ccncn4)n3)c(C)c2C2CC2)c(F)c1
Q. CCOc1cc(F)c(Cn2nc(-c3nc(Nc4ccncn4)c(NC(=O)COC)c(Nc4ccncn4)n3)c(C)c2C2CC2)c(F)c1
# return whichever of P and Q has the smaller pIC50 Your answer should be the label attached to the chosen record.
P
(P: 6.85, Q: 7.38)

---

Target: catalytic domain of human Bub1 (amino acids 704-1085) (Homo sapiens, UniProt O43683)
Construct: catalytic domain of human Bub1 (amino acids 704-1085); His6 (N); made in house; host or cells: Hi5 insect cells
Sequence (O43683 704-1085): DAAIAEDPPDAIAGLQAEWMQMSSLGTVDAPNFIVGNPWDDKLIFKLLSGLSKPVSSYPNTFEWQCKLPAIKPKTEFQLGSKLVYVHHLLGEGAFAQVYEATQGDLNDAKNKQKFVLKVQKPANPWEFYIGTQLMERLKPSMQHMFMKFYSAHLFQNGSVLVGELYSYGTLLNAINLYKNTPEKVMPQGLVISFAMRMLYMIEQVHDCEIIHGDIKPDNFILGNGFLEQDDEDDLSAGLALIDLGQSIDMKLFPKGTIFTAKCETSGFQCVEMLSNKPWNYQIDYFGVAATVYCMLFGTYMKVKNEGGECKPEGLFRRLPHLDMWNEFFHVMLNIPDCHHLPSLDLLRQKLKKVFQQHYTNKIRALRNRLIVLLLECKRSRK
Experiment: Bub1 kinase assay (TR-FRET)
Type: biochemical
Conditions: 10 μM ATP, 1 μM peptide substrate, TR-FRET; read-out: Biological Assay 1: Bub1 kinase assay median IC50
pIC50: −log10 of the molar value.
EXPERIMENTAL ENDPOINT: pIC50

Here are 2 molecules together with their reported answers.
{"columns": ["STRUCTURE AS SMILES", "DATA VALUE"],
 "data": [
  ["CCNC(=O)Nc1cc(Nc2ccncc2)nc(-c2nn(Cc3c(F)cc(OCC)cc3F)c(C3CC3)c2C)n1", 7.32],
  ["CCNC(=O)Nc1c(Nc2ccncc2)nc(-c2nn(Cc3c(F)cc(OCC)cc3F)c(C3CC3)c2C)nc1Nc1ccncc1", 6.82]
]}

P. CCOc1cc(F)c(Cn2nc(-c3nc(N)cc(Nc4ccnc(OC)c4)n3)c(C)c2C2CC2)c(F)c1
Q. CCOc1cc(F)c(Cn2nc(-c3nc(N)c(NS(=O)(=O)CC)c(Nc4ccncc4)n3)c(C)c2C2CC2)c(F)c1
# return whichever of P and Q has the smaller pIC50 Your answer should be the label attached to the chosen record.
P
(P: 6.59, Q: 8.06)

---

Biological target: catalytic domain of human Bub1 (amino acids 704-1085) (Homo sapiens, UniProt O43683)
Construct: catalytic domain of human Bub1 (amino acids 704-1085); His6 (N); made in house; host or cells: Hi5 insect cells
Assay: Bub1 kinase assay (TR-FRET)
Assay type: biochemical
pIC50: −log10 of the molar value.
EXPERIMENTAL ENDPOINT: pIC50

{"columns": ["STRUCTURE AS SMILES", "DATA VALUE"],
 "data": [
  ["CCOc1cc(F)c(Cn2nc(-c3nc(Nc4ccncn4)nc(Nc4ccncn4)n3)c(C)c2C2CC2)c(F)c1", 5.77]
]}

A. CCOc1cc(F)c(Cn2nc(-c3nc(Nc4ccnnc4)nc(Nc4ccnnc4)n3)c(C)c2C2CC2)c(F)c1
B. CCOc1cc(F)c(Cn2nc(-c3nc(N)nc(Nc4ccnnc4)n3)c(C)c2C2CC2)c(F)c1
# return whichever of A and B has the smaller pIC50 Your answer should be the label attached to the chosen record.
A

---

Biological target: catalytic domain of human Bub1 (amino acids 704-1085) (Homo sapiens)
Construct: catalytic domain of human Bub1 (amino acids 704-1085); His6 (N); made in house; host or cells: Hi5 insect cells
Assay: Bub1 kinase assay (TR-FRET)
Type: biochemical
Settings: 10 μM ATP, 1 μM peptide substrate, TR-FRET; read-out: Biological Assay 1: Bub1 kinase assay median IC50
EXPERIMENTAL ENDPOINT: IC50 (nM)

{"columns": ["COMPOUND", "SYSTEM", "IC50, nM"],
 "data": [
  ["CCOc1cc(F)c(Cn2nc(-c3nc(N)c(N4CCOCC4)c(Nc4ccncn4)n3)c(C)c2C2CC2)c(F)c1 [Example 2-1-7]", "catalytic domain of human Bub1 (amino acids 704-1085) (Homo sapiens)", 9.8]
]}

I. CCNC(=O)Nc1nc(-c2nn(Cc3c(F)cc(OCC)cc3F)c(C3CC3)c2C)nc(Nc2ccncn2)c1N1CCOCC1 [Example 2-1-19]
II. CCOc1cc(F)c(Cn2nc(-c3nc(NC(=O)NC4CCCCC4)cc(Nc4ccncn4)n3)c(C)c2C2CC2)c(F)c1 [Example 2-1-13]
III. CCOc1cc(F)c(Cn2nc(-c3nc(Nc4ccncc4)c(NC(=O)COC)c(Nc4ccncc4)n3)c(C)c2C2CC2)c(F)c1 [Example 2-2-14]
Hello, I need these entries ordered by IC50, highest reading first. Thanks! Answer by listing the labels in the order asked for.
I, II, III
